protocol description: Quality of sweetness: sensory attributes scored on a 15-point unstructured line scale
Type: in vivo
Set-up: key: scores on a 15-point unstructured line scale
experimental parameters: mean score, 15-point line scale, two replications, room temperature

molecule	Metallic Aftertaste
CC1(C(=O)O)CCCC2(C)C3CCC4(OC5OC(CO)C(O)C(OC6OC(CO)C(O)C(O)C6O)C5OC5OC(CO)C(O)C(O)C5O)CC3(CCC12)CC4(C)O (stereo not drawn) [Derivative Product 3 (III)]	0.83
CC1=CC23CCC4C(C)(C(=O)OC5OC(CO)C(O)C(O)C5O)CCCC4(C)C2CCC1(OC1OC(CO)C(O)C(OC2OC(CO)C(O)C(O)C2O)C1OC1OC(CO)C(O)C(O)C1O)C3 (stereo not drawn) [Derivative Product 2 (IV)]	0.88
C=C1C[C@@]23CC[C@H]4[C@@](C)(CCC[C@@]4(C)C(=O)OC4OC(CO)C(O)C(O)C4O)[C@@H]2CC[C@]1(OC1OC(CO)C(O)C(OC2OC(CO)C(O)C(O)C2O)C1OC1OC(CO)C(O)C(O)C1O)C3 (stereo partly drawn) [Reb. A, Rebaudioside A]	0.80

* * *

protocol description: Quality of sweetness: sensory attributes scored on a 15-point unstructured line scale
Type: in vivo
Parameters: key: scores on a 15-point unstructured line scale
experimental parameters: mean score, 15-point line scale, two replications, room temperature; more than 50% of responses zero
Reported Stale Aroma values are given for each entry in this list.

compound	Stale Aroma
OC[C@H]1O[C@@](CO)(O[C@H]2O[C@H](CO)[C@@H](O)[C@H](O)[C@H]2O)[C@@H](O)[C@@H]1O [Sucrose, sucrose, reference compound]	0.11
CC1(C(=O)O)CCCC2(C)C3CCC4(OC5OC(CO)C(O)C(OC6OC(CO)C(O)C(O)C6O)C5OC5OC(CO)C(O)C(O)C5O)CC3(CCC12)CC4(C)O (stereo not drawn)	0.00
C=C1C[C@@]23CC[C@H]4[C@@](C)(CCC[C@@]4(C)C(=O)OC4OC(CO)C(O)C(O)C4O)[C@@H]2CC[C@]1(OC1OC(CO)C(O)C(OC2OC(CO)C(O)C(O)C2O)C1OC1OC(CO)C(O)C(O)C1O)C3 (stereo partly drawn) [Reb. A, Rebaudioside A]	0.00
CC1=CC23CCC4C(C)(C(=O)O)CCCC4(C)C2CCC1(OC1OC(CO)C(O)C(OC2OC(CO)C(O)C(O)C2O)C1OC1OC(CO)C(O)C(O)C1O)C3 (stereo not drawn)	0.09
CC1(C(=O)OC2OC(CO)C(O)C(O)C2O)CCCC2(C)C3CCC4(OC5OC(CO)C(O)C(OC6OC(CO)C(O)C(O)C6O)C5OC5OC(CO)C(O)C(O)C5O)CC3(CCC12)CC4(C)O (stereo not drawn)	0.10
CC1=CC23CCC4C(C)(C(=O)OC5OC(CO)C(O)C(O)C5O)CCCC4(C)C2CCC1(OC1OC(CO)C(O)C(OC2OC(CO)C(O)C(O)C2O)C1OC1OC(CO)C(O)C(O)C1O)C3 (stereo not drawn)	0.06

* * *

protocol description: Quality of sweetness: sensory attributes scored on a 15-point unstructured line scale
Type: in vivo
Set-up: key: scores on a 15-point unstructured line scale
experimental parameters: mean score, 15-point line scale, two replications, room temperature
measured endpoint: Mouth Numbing

compound	reported result
CC1=CC23CCC4C(C)(C(=O)OC5OC(CO)C(O)C(O)C5O)CCCC4(C)C2CCC1(OC1OC(CO)C(O)C(OC2OC(CO)C(O)C(O)C2O)C1OC1OC(CO)C(O)C(O)C1O)C3 (stereo not drawn)	0.97
CC1=CC23CCC4C(C)(C(=O)O)CCCC4(C)C2CCC1(OC1OC(CO)C(O)C(OC2OC(CO)C(O)C(O)C2O)C1OC1OC(CO)C(O)C(O)C1O)C3 (stereo not drawn)	0.90
CC1(C(=O)OC2OC(CO)C(O)C(O)C2O)CCCC2(C)C3CCC4(OC5OC(CO)C(O)C(OC6OC(CO)C(O)C(O)C6O)C5OC5OC(CO)C(O)C(O)C5O)CC3(CCC12)CC4(C)O (stereo not drawn)	0.38
CC1(C(=O)O)CCCC2(C)C3CCC4(OC5OC(CO)C(O)C(OC6OC(CO)C(O)C(O)C6O)C5OC5OC(CO)C(O)C(O)C5O)CC3(CCC12)CC4(C)O (stereo not drawn)	1.09
OC[C@H]1O[C@@](CO)(O[C@H]2O[C@H](CO)[C@@H](O)[C@H](O)[C@H]2O)[C@@H](O)[C@@H]1O [Sucrose, sucrose, reference compound]	0.57
C=C1C[C@@]23CC[C@H]4[C@@](C)(CCC[C@@]4(C)C(=O)OC4OC(CO)C(O)C(O)C4O)[C@@H]2CC[C@]1(OC1OC(CO)C(O)C(OC2OC(CO)C(O)C(O)C2O)C1OC1OC(CO)C(O)C(O)C1O)C3 (stereo partly drawn) [Reb. A, Rebaudioside A]	0.76
